target: PDGFr (mouse PDGF-β receptor tyrosine kinase) (Mus musculus, UniProt P05622); construct: PCR primers are designed to amplify a fragment of DNA that codes for the intracellular tyrosine kinase domain; test: PDGFr tyrosine kinase assay, 32P incorporation into glutamate-tyrosine copolymer; conditions: 50 μM ATP
Sequence (P05622 599-961 limits assumed): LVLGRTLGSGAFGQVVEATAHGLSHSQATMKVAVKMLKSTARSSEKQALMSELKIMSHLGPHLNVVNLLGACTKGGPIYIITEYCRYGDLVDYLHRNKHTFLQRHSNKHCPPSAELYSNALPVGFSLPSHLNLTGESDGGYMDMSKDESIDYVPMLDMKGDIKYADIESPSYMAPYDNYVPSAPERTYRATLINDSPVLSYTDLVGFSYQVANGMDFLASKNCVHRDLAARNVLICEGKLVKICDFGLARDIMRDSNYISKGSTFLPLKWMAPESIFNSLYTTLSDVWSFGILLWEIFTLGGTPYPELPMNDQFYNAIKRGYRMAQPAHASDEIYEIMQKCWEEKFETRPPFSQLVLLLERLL
pIC50: −log10 of the molar value.
Value kind: pIC50

P = CCn1c(=O)ccc2cnc(Nc3ccc(N4CCN(C)CC4)cc3)cc21 [Example Y]
Q = CCN(CC)CCCOc1ccc(Nc2cc3c(cn2)cc(-c2c(Cl)cccc2Cl)c(=O)n3C)cc1 [Example R]
R = CCN(CC)CCNc1cc2c(cn1)cc(-c1c(Cl)cccc1Cl)c(=O)n2C [Example D]
S = Cn1c(=O)c(-c2c(Cl)cccc2Cl)cc2cnc(NCCCCN3CCOCC3)cc21 [Example Q]
T = CN1CCN(CCCCNc2cc3c(cn2)cc(-c2c(Cl)cccc2Cl)c(=O)n3C)CC1 [Example I]
Query: Put the listed items above in order, lowest pIC50 first. Please reply with the labels ordered as requested. Many thanks.
Response: R, P, S, T, Q

# credit: patent US6150359A
